All figures here come from patent US10968215B2.

system name: PRC2 complex (EZH2 Y641F/EED/SUZ12/RbAp48/AEBP2) (Homo sapiens (Human), UniProt Q15910, Y641F)
Sequence (Q15910 whole entry Y641F): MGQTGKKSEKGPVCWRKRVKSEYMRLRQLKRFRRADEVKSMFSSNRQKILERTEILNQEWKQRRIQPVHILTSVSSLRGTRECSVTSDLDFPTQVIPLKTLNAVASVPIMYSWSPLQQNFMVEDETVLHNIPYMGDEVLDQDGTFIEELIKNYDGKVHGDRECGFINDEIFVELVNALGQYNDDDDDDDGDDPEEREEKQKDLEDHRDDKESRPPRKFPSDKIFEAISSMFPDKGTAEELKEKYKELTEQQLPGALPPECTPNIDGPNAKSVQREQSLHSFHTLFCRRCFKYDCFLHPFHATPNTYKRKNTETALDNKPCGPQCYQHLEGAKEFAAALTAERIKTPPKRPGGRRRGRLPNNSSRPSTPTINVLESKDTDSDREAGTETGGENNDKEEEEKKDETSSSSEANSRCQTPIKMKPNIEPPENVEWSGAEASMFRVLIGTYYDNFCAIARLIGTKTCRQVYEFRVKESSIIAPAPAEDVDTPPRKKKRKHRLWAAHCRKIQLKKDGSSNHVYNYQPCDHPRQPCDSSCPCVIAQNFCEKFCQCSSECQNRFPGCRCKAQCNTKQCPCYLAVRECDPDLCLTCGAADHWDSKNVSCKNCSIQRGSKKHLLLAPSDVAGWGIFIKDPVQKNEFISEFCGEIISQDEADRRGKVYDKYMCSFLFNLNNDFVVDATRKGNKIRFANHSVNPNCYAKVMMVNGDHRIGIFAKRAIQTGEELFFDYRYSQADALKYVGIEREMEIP
Sequence (O75530 whole entry partner): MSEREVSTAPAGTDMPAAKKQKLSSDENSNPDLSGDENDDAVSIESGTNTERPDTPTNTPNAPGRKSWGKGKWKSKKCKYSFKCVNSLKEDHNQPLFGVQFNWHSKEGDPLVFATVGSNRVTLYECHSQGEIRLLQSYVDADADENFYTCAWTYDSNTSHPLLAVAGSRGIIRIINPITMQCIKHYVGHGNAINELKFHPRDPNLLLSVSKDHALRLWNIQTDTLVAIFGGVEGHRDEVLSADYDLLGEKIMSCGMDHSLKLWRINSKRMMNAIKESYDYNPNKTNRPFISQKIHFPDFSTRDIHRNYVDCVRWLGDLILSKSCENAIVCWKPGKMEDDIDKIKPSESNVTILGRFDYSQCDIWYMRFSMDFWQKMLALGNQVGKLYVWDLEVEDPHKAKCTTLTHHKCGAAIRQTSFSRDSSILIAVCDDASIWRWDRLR
Sequence (Q15022 whole entry partner): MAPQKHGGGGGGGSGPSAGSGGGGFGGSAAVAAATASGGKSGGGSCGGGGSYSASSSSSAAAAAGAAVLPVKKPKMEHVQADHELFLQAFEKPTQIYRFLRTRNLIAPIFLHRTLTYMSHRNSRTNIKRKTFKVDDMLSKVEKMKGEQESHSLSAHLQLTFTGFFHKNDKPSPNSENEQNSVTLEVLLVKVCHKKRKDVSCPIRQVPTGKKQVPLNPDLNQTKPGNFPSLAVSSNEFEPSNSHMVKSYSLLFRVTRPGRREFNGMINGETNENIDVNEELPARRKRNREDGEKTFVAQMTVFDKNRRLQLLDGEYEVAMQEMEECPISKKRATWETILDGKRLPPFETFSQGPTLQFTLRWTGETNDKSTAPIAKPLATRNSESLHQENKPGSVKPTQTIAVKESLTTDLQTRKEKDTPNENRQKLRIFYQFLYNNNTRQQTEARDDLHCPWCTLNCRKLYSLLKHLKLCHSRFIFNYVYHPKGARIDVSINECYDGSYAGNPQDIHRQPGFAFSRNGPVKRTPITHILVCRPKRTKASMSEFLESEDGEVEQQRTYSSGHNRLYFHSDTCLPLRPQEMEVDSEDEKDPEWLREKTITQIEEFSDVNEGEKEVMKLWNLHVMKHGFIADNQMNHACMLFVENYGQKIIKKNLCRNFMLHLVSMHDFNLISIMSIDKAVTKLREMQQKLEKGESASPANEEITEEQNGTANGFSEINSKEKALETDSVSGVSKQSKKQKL
Sequence (Q09028 whole entry partner): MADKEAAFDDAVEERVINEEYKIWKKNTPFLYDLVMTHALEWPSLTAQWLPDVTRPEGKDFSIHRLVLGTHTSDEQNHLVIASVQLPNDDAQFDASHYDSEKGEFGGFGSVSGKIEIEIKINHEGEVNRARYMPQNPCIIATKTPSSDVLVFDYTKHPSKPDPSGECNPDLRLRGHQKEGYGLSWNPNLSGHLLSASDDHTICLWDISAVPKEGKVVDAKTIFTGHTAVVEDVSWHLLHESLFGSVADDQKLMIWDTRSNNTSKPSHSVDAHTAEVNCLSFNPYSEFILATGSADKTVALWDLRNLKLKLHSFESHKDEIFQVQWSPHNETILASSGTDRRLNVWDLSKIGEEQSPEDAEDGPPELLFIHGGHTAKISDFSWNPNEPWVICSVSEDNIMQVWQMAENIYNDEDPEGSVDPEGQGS
Sequence (Q6ZN18 whole entry partner): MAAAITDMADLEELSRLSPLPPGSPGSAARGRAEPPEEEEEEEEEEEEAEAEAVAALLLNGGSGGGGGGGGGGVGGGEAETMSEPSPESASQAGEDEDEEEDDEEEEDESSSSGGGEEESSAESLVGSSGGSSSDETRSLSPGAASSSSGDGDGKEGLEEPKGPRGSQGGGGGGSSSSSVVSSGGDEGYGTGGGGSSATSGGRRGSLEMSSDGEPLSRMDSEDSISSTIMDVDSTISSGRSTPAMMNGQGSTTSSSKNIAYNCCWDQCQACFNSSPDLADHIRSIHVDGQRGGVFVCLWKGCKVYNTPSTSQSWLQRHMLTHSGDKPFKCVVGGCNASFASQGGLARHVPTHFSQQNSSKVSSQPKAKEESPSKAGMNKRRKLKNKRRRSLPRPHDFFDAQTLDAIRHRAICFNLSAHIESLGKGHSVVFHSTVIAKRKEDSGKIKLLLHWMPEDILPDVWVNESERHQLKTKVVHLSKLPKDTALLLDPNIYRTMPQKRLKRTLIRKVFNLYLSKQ
experiment summary: Activity of a compound to PRC2 complex (EZH2 Y641F), HTRF
applied conditions: read-out: IC50 (EZH2_Y641F); EZH2 Y641F PRC2 complex, HTRF; class symbols
pIC50: −log10 of the molar value.
property name: pIC50

See these solved cases before continuing.
Cc1cc(C)c(CNC(=O)c2cc3cccn3c(C(C)OCc3cccs3)c2C)c(=O)[nH]1 (stereo not shown) [Example 17] ... > 7.00
COc1cc(C)[nH]c(=O)c1CNC(=O)c1cc2c(-c3cnc(C)nc3)ccn2c([C@H](C)N2CCN(CC(F)(F)F)CC2)c1C (single isomer, unassigned) [Compound 197] ... > 7.00
Cc1cc(C)c(CNC(=O)c2cc3cc(C4=CCNCC4)cn3c(C(C)N3CCOCC3)c2C)c(=O)[nH]1 (stereo not shown) [Example 45] ... 5.00 to 6.00

Then there is this molecule:
Would you mind telling me what pIC50 value was observed for CCN(c1c(C)c(C(=O)NCc2c(C)cc(C)[nH]c2=O)cc2cc(Br)cn12)C1CCNCC1 [Example 61] ?
6.00 to 7.00

---

system name: PRC2 complex (EZH2 Y641F/EED/SUZ12/RbAp48/AEBP2) (Homo sapiens (Human), UniProt Q15910, Y641F)
experiment summary: Activity of a compound to PRC2 complex (EZH2 Y641F), HTRF
applied conditions: read-out: IC50 (EZH2_Y641F); EZH2 Y641F PRC2 complex, HTRF; class symbols
pIC50: −log10 of the molar value.
property name: pIC50

See these solved cases before continuing.
Cc1cc(C)c(CNC(=O)c2cc3cccn3c(C(C)OCc3ccncc3)c2C)c(=O)[nH]1 (centres unmarked) [Example 16] ... 6.00 to 7.00
COc1cc(C)[nH]c(=O)c1CNC(=O)c1cc2c(-c3cc(C)nc(C)c3)ccn2c([C@H](C)N2CCN(CC(F)(F)F)CC2)c1C (single isomer, unassigned) [Compound 175] ... 6.00 to 7.00
COc1cc(C)[nH]c(=O)c1CNC(=O)c1cc2c(-c3ccnc(Cl)c3)ccn2c([C@H](C)N2CCN(CC(F)(F)F)CC2)c1C (single isomer, unassigned) [Compound 169] ... > 7.00
COc1cc(C)[nH]c(=O)c1CNC(=O)c1cc2c(-c3ccc(N)nc3)ccn2c(C(C)N2CCN(CC(F)(F)F)CC2)c1C (centres unmarked) [Compound 157] ... > 7.00
CCN(c1c(C)c(C(=O)NCc2c(C)cc(C)[nH]c2=O)cc2cc(Br)cn12)C1CNC1 [Example 59] ... 5.00 to 6.00

Would you mind telling me what pIC50 value was observed for Cc1cc(C)c(CNC(=O)c2cc3cccn3c(C(C)c3ccccc3)c2C)c(=O)[nH]1 (centres unmarked) [Example 25] ?
6.00 to 7.00

Next: COc1cc(C)[nH]c(=O)c1CNC(=O)c1cc2c(-c3ccccc3)ccn2c(C(C)N2CCOCC2)c1C (centres unmarked) [Example 131]
> 7.00

Next: CCN(c1c(C)c(C(=O)NCc2c(OC)cc(C)[nH]c2=O)cc2c(-c3ccnc(N(C)C)c3)ccn12)C1CCN(CC(F)(F)F)CC1 [Compound 203]
> 7.00

Next: Cc1cc(C)c(CNC(=O)c2cc3cc(-c4cncs4)cn3c(C(C)N3CCC(N(C)C)CC3)c2C)c(=O)[nH]1 (centres unmarked) [Example 138]
> 7.00

Next: Cc1cc(C)c(CNC(=O)c2cc3cc(-c4ccc5c(c4)OCO5)cn3c(C(C)N3CCOCC3)c2C)c(=O)[nH]1 (centres unmarked) [Example 31]
6.00 to 7.00

Next: Cc1cc(C)c(CNC(=O)c2cc3cc(C4CCNCC4)cn3c(C(C)N3CCOCC3)c2C)c(=O)[nH]1 (centres unmarked) [Example 46]
> 7.00

Next: Cc1cc(C)c(CNC(=O)c2cc3cccn3c(C(C)OCc3ccccn3)c2C)c(=O)[nH]1 (centres unmarked) [Example 15]
6.00 to 7.00

Next: COc1cccc(COC(C)c2c(C)c(C(=O)NCc3c(C)cc(C)[nH]c3=O)cc3cccn23)c1 (centres unmarked) [Example 14]
6.00 to 7.00

Next: Cc1cc(C)c(CNC(=O)c2cc3cc(Br)cn3c(C(C)N3CCN(C(=O)CO)CC3)c2C)c(=O)[nH]1 (centres unmarked) [Example 101]
6.00 to 7.00

---

// IC50 lookup, one value per entry
system name: PRC2 complex (EZH2/EED/SUZ12/RbAp48/AEBP2) (Homo sapiens (Human), UniProt Q15910)
Sequence (Q15910 whole entry): as the sequence (Q15910 whole entry Y641F) above, with F641Y counted along it
Sequence (O75530 whole entry partner): as the sequence (O75530 whole entry partner) above
Sequence (Q15022 whole entry partner): as the sequence (Q15022 whole entry partner) above
Sequence (Q09028 whole entry partner): as the sequence (Q09028 whole entry partner) above
Sequence (Q6ZN18 whole entry partner): as the sequence (Q6ZN18 whole entry partner) above
experiment summary: Activity of a compound to PRC2 complex (EZH2 wild type), ELISA
applied conditions: class symbols

See these solved cases before continuing.
Cc1cc(C)c(CNC(=O)c2cc3cccn3c(N(C)C3CCOCC3)c2C)c(=O)[nH]1 ... 100 to 1000 nM
Cc1cc(C)c(CNC(=O)c2cc3cccn3c(C(C)OCc3ccsc3)c2C)c(=O)[nH]1 (stereo not shown) ... 100 to 1000 nM
Cc1cc(C)c(CNC(=O)c2cc3c(-c4ccc(N)nc4)ccn3c(C(C)N3CCN(CC(F)(F)F)CC3)c2C)c(=O)[nH]1 (stereo not shown) ... < 100 nM

Would you mind telling me what IC50 value was observed for Cc1cc(C)c(CNC(=O)c2cc3cccn3c(C(C)OCc3ccccc3F)c2C)c(=O)[nH]1 (stereo not shown) ?
100 to 1000 nM

---

system name: PRC2 complex (EZH2 Y641F/EED/SUZ12/RbAp48/AEBP2) (Homo sapiens (Human), UniProt Q15910, Y641F)
experiment summary: Activity of a compound to PRC2 complex (EZH2 Y641F), HTRF
applied conditions: read-out: IC50 (EZH2_Y641F); EZH2 Y641F PRC2 complex, HTRF; class symbols
// IC50 lookup, one value per entry

See these solved cases before continuing.
COc1cc(C)[nH]c(=O)c1CNC(=O)c1cc2c(-c3ccc(C)nn3)ccn2c([C@H](C)N2CCN(CC(F)(F)F)CC2)c1C (single isomer, unassigned) [Compound 201] ... < 100 nM
CCN(c1c(C)c(C(=O)NCc2c(C)cc(C)[nH]c2=O)cc2cc(-c3ccccc3)cn12)C1CCOCC1 ... 100 to 1000 nM
Cc1cc(C)c(CNC(=O)c2cc3cccn3c(C(C)OCc3cccc(F)c3)c2C)c(=O)[nH]1 (stereo not drawn) ... 100 to 1000 nM
COc1cc(C)[nH]c(=O)c1CNC(=O)c1cc2c(-c3cc(C)nc(C)c3)ccn2c(C(C)N2CCN(CC(F)(F)F)CC2)c1C (stereo not drawn) ... < 100 nM
COc1ccc(-c2cc3cc(C(=O)NCc4c(C)cc(C)[nH]c4=O)c(C)c(C(C)N4CCOCC4)n3c2)c(OC)c1 (stereo not drawn) ... < 100 nM

Then there is this compound:
Would you mind telling me what IC50 value was observed for COc1cc(C)[nH]c(=O)c1CNC(=O)c1cc2c(-c3ccnc(C(C)C)c3)ccn2c(C(C)N2CCN(CC(F)(F)F)CC2)c1C (stereo not drawn) ?
< 100 nM

---

system name: PRC2 complex (EZH2 Y641F/EED/SUZ12/RbAp48/AEBP2) (Homo sapiens (Human), UniProt Q15910, Y641F)
experiment summary: Activity of a compound to PRC2 complex (EZH2 Y641F), HTRF
applied conditions: read-out: IC50 (EZH2_Y641F); EZH2 Y641F PRC2 complex, HTRF; class symbols
property name: IC50

See these solved cases before continuing.
Cc1cc(C)c(CNC(=O)c2cc3c(Br)ccn3c(C(C)N3CCOCC3)c2C)c(=O)[nH]1 (stereo not shown) [Example 54] ... < 0.1 µM
COC(=O)c1cc2cc(C(=O)NCc3c(C)cc(C)[nH]c3=O)c(C)c(C(C)N3CCOCC3)n2c1 (stereo not shown) [Example 125] ... 0.1 to 1 µM
Cc1cc(C)c(CNC(=O)c2cc3cc(-c4cc5c(s4)CCNC5)cn3c(C(C)N3CCOCC3)c2C)c(=O)[nH]1 (stereo not shown) [Example 114] ... 0.1 to 1 µM

Would you mind telling me what IC50 value was observed for Cc1cc(C)c(CNC(=O)c2cc3cccn3c(C(C)OC3C=CCCC3)c2C)c(=O)[nH]1 (stereo not shown) [Example 7] ?
0.1 to 1 µM

---

// pIC50 lookup, one value per entry
system name: PRC2 complex (EZH2 Y641F/EED/SUZ12/RbAp48/AEBP2) (Homo sapiens (Human), UniProt Q15910, Y641F)
experiment summary: Activity of a compound to PRC2 complex (EZH2 Y641F), HTRF
applied conditions: read-out: IC50 (EZH2_Y641F); EZH2 Y641F PRC2 complex, HTRF; class symbols
pIC50: −log10 of the molar value.

CCN(c1c(C)c(C(=O)NCc2c(C)cc(C)[nH]c2=O)cc2cc(-c3cnn(C)c3)cn12)C1CCOCC1 ... > 7.00
Cc1cc(C)c(CNC(=O)c2cc3cc(-c4ccc(N5CCNCC5)nc4)cn3c(C(C)N3CCOCC3)c2C)c(=O)[nH]1 (stereo not shown) ... 5.00 to 6.00
Cc1cc(C)c(CNC(=O)c2cc3c(-c4ccc(N5CCOCC5)cc4)ccn3c(C(C)N3CCOCC3)c2C)c(=O)[nH]1 (stereo not shown) [Example 118] ... > 7.00

Then there is this compound:
Would you mind telling me what pIC50 value was observed for COc1cc(-c2cc3cc(C(=O)NCc4c(C)cc(C)[nH]c4=O)c(C)c(C(C)OC)n3c2)cc(OC)c1OC (stereo not shown) ?
> 7.00
